Documented log10 of IC50 across a set of molecules
- Tested on: KB3-1 cells
- assay_notes: MTT assay, 72 h, KB3-1
- Format: cell-based
- run_conditions: Homo sapiens, KB 3-1, mean ± SD
Would you kindly interpret these values as log10 of IC50 expressed in µM?

Solved cases below.
| molecule | recorded_number |
| --- | --- |
| COc1ccc(N2C(=O)/C(=C/C=C/c3ccccc3)SC23C(=O)Nc2ccc(Cl)cc23)cc1 (centres unmarked) | 1.66 |
| O=C1CSC2(C(=O)Nc3ccc(F)cc32)N1Cc1ccccc1 (centres unmarked) | 1.78 |
| CC(C)(C)c1ccc(/C=C2\SC3(C(=O)Nc4ccc(Cl)cc43)N(Cc3ccccc3)C2=O)cc1 (centres unmarked) | 0.77 |

Prompt: Hello, please tell me recorded log10 of IC50 for this one: CCOc1ccc(/C=C2\SC3(C(=O)Nc4ccc(Br)cc43)N(c3ccc(Br)cc3)C2=O)cc1 (centres unmarked)
Completion: 1.29

Prompt: Complete the entry with log10 of IC50 for O=C1/C(=C/c2ccc(N3CCOCC3)cc2)SC2(C(=O)Nc3ccc(Cl)cc32)N1c1ccc(Cl)cc1 (centres unmarked)
Completion: 1.23

Prompt: // fetch log10 of IC50 given entry COc1ccc(N2C(=O)CSC23C(=O)Nc2ccc(Cl)cc23)cc1 (centres unmarked)
Completion: 1.79

Prompt: Supply measured log10 of IC50 of O=C1CSC2(C(=O)Nc3ccc(Cl)cc32)N1Cc1ccccc1 (centres unmarked) in your reply.
Completion: 1.72

Prompt: Look up and state reported log10 of IC50 for O=C1/C(=C/c2ccc(Cl)cc2)SC2(C(=O)Nc3ccc(Cl)cc32)N1c1ccc(Cl)cc1 (centres unmarked)
Completion: 0.84

###

- System: 4T1 cells
- assay_notes: MTT assay, 72 h, 4T1
- Format: cell-based
- run_conditions: Mus musculus, mean ± SD
Each item that follows carries a reported IC50.
State the answer as a number, implicitly in µM.

| compound | recorded_number |
| --- | --- |
| COc1ccc(N2C(=O)/C(=C/c3ccc(Cl)cc3)SC23C(=O)Nc2ccc(Cl)cc23)cc1 (stereo not shown) | 29 |
| CCOc1ccc(/C=C2\SC3(C(=O)Nc4ccc(Cl)cc43)N(c3ccc(Cl)cc3)C2=O)cc1 (stereo not shown) | 7.84 |

Proceed to the following item.
Prompt: Supply IC50 value. Item: COc1ccc(N2C(=O)CSC23C(=O)Nc2ccc(Cl)cc23)cc1 (stereo not shown)
Completion: 89.4

###

- Test system: KB3-1 cells
- assay_notes: MTT assay, 72 h, KB3-1
- Type: cell-based
- run_conditions: Homo sapiens, KB 3-1, mean ± SD
- Experimental: The cytotoxic potential of the synthesized compounds was investigated using the MTT assay after 72 h incubation with a panel of human and murine cancer cell lines, including colorectal carcinoma (HCT116), estrogen receptor-positive breast adenocarcinoma (MCF-7), triple-negative breast adenocarcinoma (MDA-MB-231), epidermoid carcinoma (KB3-1), myeloid leukemia (K562), and glioblastoma (U373), and mouse breast carcinoma (4T1) cells. […]
pIC50: recorded values
Kindly note that pIC50 refers to -log10 of the concentration in mol/L and answer with the value alone.

The cases that follow already have their pIC50 on record.
| compound | pIC50 |
| --- | --- |
| CC(C)(C)c1ccc(/C=C2\SC3(C(=O)Nc4ccc(Cl)cc43)N(c3ccc(Cl)cc3)C2=O)cc1 (stereo not drawn) | 5.01 |
| COc1ccc(N2C(=O)/C(=C/c3ccc(Cl)cc3)SC23C(=O)Nc2ccc(Cl)cc23)cc1 (stereo not drawn) | 4.77 |
| CC(C)(C)c1ccc(/C=C2\SC3(C(=O)Nc4ccc(F)cc43)N(Cc3ccccc3)C2=O)cc1 (stereo not drawn) | 5.10 |
| CCOc1ccc(/C=C2\SC3(C(=O)Nc4ccc(Cl)cc43)N(c3ccc(Cl)cc3)C2=O)cc1 (stereo not drawn) | 4.65 |
| O=C1CSC2(C(=O)Nc3ccc(Cl)cc32)N1c1ccc(Cl)cc1 (stereo not drawn) | 4.29 |
| O=C1CSC2(C(=O)Nc3ccc(Br)cc32)N1c1ccc(Br)cc1 (stereo not drawn) | 4.33 |
| COc1ccc(N2C(=O)/C(=C/c3ccc(N4CCOCC4)cc3)SC23C(=O)Nc2ccc(Cl)cc23)cc1 (stereo not drawn) | 4.12 |
| CCOc1ccc(/C=C2\SC3(C(=O)Nc4ccc(F)cc43)N(Cc3ccccc3)C2=O)cc1 (stereo not drawn) | 4.46 |

We now examine a further compound.
Prompt: # return recorded pIC50 for entry O=C1/C(=C/c2ccc(-c3ccccn3)cc2)SC2(C(=O)Nc3ccc(Cl)cc32)N1c1ccc(Cl)cc1 (stereo not drawn)
Completion: 6.00

###

// reported pIC50 for each item listed
- System: 4T1 cells
- assay_notes: MTT assay, 72 h, 4T1
- Assay type: cell-based
- run_conditions: Mus musculus, mean ± SD
pIC50: −log10 of the molar value.

| compound | pIC50 |
| --- | --- |
| O=C1/C(=C/c2ccc(N3CCOCC3)cc2)SC2(C(=O)Nc3ccc(Cl)cc32)N1c1ccc(Cl)cc1 (stereo not shown) [Compound 10] | < 4.00 |
| CCOc1ccc(/C=C2\SC3(C(=O)Nc4ccc(Br)cc43)N(c3ccc(Br)cc3)C2=O)cc1 (stereo not shown) [Compound 14] | < 4.00 |
| COc1ccc(N2C(=O)/C(=C/c3ccc(N4CCOCC4)cc3)SC23C(=O)Nc2ccc(Cl)cc23)cc1 (stereo not shown) [Compound 8] | < 4.00 |

Prompt: Please report pIC50 for the following compound: O=C1/C(=C/c2ccc(-c3ccccn3)cc2)SC2(C(=O)Nc3ccc(Cl)cc32)N1c1ccc(Cl)cc1 (stereo not shown) [Compound 13]
Completion: < 4.00
